Source listed as paper PMC3946276.

Target: G-protein coupled receptor 30 (GPR30) (Rattus norvegicus)
Sequence (O08878 1-375): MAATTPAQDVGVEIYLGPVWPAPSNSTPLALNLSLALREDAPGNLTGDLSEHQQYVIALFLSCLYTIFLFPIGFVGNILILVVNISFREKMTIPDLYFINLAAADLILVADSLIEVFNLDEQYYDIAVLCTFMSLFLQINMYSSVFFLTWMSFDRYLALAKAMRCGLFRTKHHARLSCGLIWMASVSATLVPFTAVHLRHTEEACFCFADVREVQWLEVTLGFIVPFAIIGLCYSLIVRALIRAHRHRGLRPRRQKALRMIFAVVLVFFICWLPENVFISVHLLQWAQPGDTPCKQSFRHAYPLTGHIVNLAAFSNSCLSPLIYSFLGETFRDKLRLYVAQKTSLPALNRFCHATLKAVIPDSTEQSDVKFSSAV
pKd: −log10 of the molar value.

>  <molecule>
COc1cc2c(cc1O)CC[C@@H]1[C@@H]2CC[C@]2(C)[C@@H](O)CC[C@@H]12 [2ME2, 2-methoxyestradiol]

>  <pKd>
~8.00

$$$$
